METHOD_SUMMARY: Stability of mini-G proteins in detergent by native DSF
Assay type: physicochemical
RUN_CONDITIONS: 2 mg/ml, onset of scattering
MEASURED_QUANTITY: Stability in detergent measured by native DSF, No detergent (°C)

- MOLECULE: "Mini-Gs/q70: mini-Gs with R380K Q384L R385Q H387N Q390E E392N L394V (protein) GIEKQLQKDKQVYRATHRLLLLGADNSGKSTIVKQMRILHGGSGGSGGTSGIFETKFQVDKVNFHMFDVGGQRDERRKWIQCFNDVTAIIFVVDSSDYNRLQEALNDFKSIWNNRWLRTISVILFLNKQDLLAEKVLAGKSKIEDYFPEFARYTTPEDATPEPGEDPRVTRAKYFIRDEFLRISTASGDGRHYCYPHFTCAVDTENARRIFNDCKDIILQMNLREYNLV"
  OBSERVED: 47.2

All figures here come from patent US11339383B2.
